Entries and their measured Inhibition follow.
system: Candida albicans; settings: Concentration 32 ug.mL-1; ASSAY_TEST Inhibition of Fungal Growth; detection method Absorption (OD530)
Description: Antifungal activity against Candida albicans ATCC 90028 (CO-ADD:FG_001); MIC in YNB media using NBS plates, by OD630
Measured potencies and affinities stand elsewhere.
Express your answer in %, writing the number without its unit.

Tell me the measured Inhibition of CCCCn1c(=O)c2sccc2n2c(=O)n(CC(=O)c3ccc(OC)cc3)nc12 , please.
4.16

###

system: Candida albicans; settings: Concentration 32 ug.mL-1; ASSAY_TEST Inhibition of Fungal Growth; detection method Absorption (OD530)
Entries with a potency or affinity are not part of this list.
Entries and their measured Inhibition follow.
Express your answer in %, writing the number without its unit.

Recorded results for 5 compounds are shown here.
[[record]]
compound_string = "CCc1nnc2c(S(=O)(=O)N(Cc3ccccc3C)c3ccc(C(C)C)cc3)cccn12"
result_number = 21.84

[[record]]
compound_string = "CCc1cccc(NC(=O)Cn2nc3nc(N4CCCCCC4)ccn3c2=O)c1"
result_number = 0.8

[[record]]
compound_string = "Cc1ccc(NC(=O)Cn2nc3ccc(-c4ccc(Cl)cc4)nn3c2=O)cc1F"
result_number = -1.16

[[record]]
compound_string = "O=C(Cn1nc2nc(Nc3ccc(F)cc3)ccn2c1=O)N1CCCC1"
result_number = 0.53

[[record]]
compound_string = "Cc1ccc(-c2cc3c4nn(CC(=O)Nc5ccccc5F)c(=O)n4ccn3n2)cc1C"
result_number = -0.75


Enter reported Inhibition observed with Candida albicans for CC(C)CCn1c(=O)c2ccccc2n2c(=O)n(CC#N)nc12
2.65

Enter reported Inhibition observed with Candida albicans for CCCN(C)c1nccn2c(=O)n(CC(=O)Nc3cccc(Br)c3)nc12
1.99

Enter reported Inhibition observed with Candida albicans for COc1ccccc1-n1ccn2c(SCc3ccccc3F)nnc2c1=O
2.31

Enter reported Inhibition observed with Candida albicans for CC(C)NC(=O)CCn1c(=O)c2ccccc2n2c(=O)n(CC#N)nc12
0.91

###

tested on: Cryptococcus neoformans; conditions: Concentration 32 ug.mL-1; ASSAY_TEST Inhibition of Fungal Growth; detection method Resazurin; Absorption (OD600-OD570); plate type 384well; NBS; CORNING #3640
Description: Antifungal activity against Cryptococcus neoformans H99 ATCC 208821 (CO-ADD:FG_002); MIC in YNB media using NBS plates, by Resazurin OD(600-570)
Results with a measured potency or affinity are listed apart.
Param threshold (-20%) applies to Inhibition; output True when value >= threshold, False when value < threshold.

These solved cases illustrate the format of a correct answer.
[[record]]
compound = "COc1ccc(-c2cc3c4nn(CC(=O)Nc5cc(C)ccc5C)c(=O)n4ccn3n2)cc1"
label_class = "False"

[[record]]
compound = "CC(=O)c1cccc(NC(=O)CSc2nc3ccccc3n3c(C)nnc23)c1"
label_class = "True"

[[record]]
compound = "CC(C)CCNC(=O)Cn1nc2n(Cc3cccs3)c(=O)c3sccc3n2c1=O"
label_class = "True"

[[record]]
compound = "CCOc1ccc(NC(=O)Cn2nc3c(N4CCCC(C)C4)nccn3c2=O)cc1 (stereo not given)"
label_class = "True"

[[record]]
compound = "NC(=O)Cn1nc2n(CCC(=O)NC3CCCCC3)c(=O)c3ccccc3n2c1=O"
label_class = "False"

[[record]]
compound = "CCOc1ccc(NC(=O)Cn2nc3c(Sc4ccc(C)cc4C)nccn3c2=O)cc1"
label_class = "True"


Given CCOc1ccc(NC(=O)Cn2c(=O)c3nnc(C(C)C)n3c3ccccc32)cc1 , state whether its Inhibition is at least -20%.
True

Given CC(=O)c1ccc(NC(=O)Cn2nc3c4cc(-c5ccc(Cl)cc5)nn4ccn3c2=O)cc1 , state whether its Inhibition is at least -20%.
True

Given Cc1ccc(CSc2nnc3c(=O)n(-c4ccc(Br)cc4)ccn23)cc1 , state whether its Inhibition is at least -20%.
True

Given O=C(CSc1nnc2c3cc(-c4ccc(F)cc4)nn3ccn12)NCc1ccccc1Cl , state whether its Inhibition is at least -20%.
True

Given Cc1nnc2c(=O)n(CC(=O)Nc3ccccc3Br)c3ccccc3n12 , state whether its Inhibition is at least -20%.
True
